System: Rattus norvegicus
test.protocol: Compound was evaluated for the duration of cytoprotective effect, in Ethanol-Necrosis model, that causes inhibition of ulceration. Absolute ethanol was administered at 6 hr after dosing
Assay type: functional
readout.kind: Inhibition

[[record]]
chemical_string = "CC1(C)OC(/C=C/c2ccc(F)cc2)=CC1=O"
readout_kind = "Inhibition"
observed_value = "50%"

[[record]]
chemical_string = "CC1(C)OC(/C=C/c2cccnc2)=CC1=O"
readout_kind = "Inhibition"
observed_value = "60%"

[[record]]
chemical_string = "CC(=O)c1ccc2c(c1)C(=O)C1(CC1)O2"
readout_kind = "Inhibition"
observed_value = "44%"

[[record]]
chemical_string = "CC1(C)OC(/C=C/c2ccncc2)=CC1=O"
readout_kind = "Inhibition"
observed_value = "46%"


* * *

Recorded measurements of inhibition in vivo at 10 mg/kg, one per entry
Tested on: Rattus norvegicus
test.protocol: Inhibition against ethanol-induced lesions which was administered after 1 hr at a oral dosing of 10 mg/kg in pylorus-ligated rat model
Assay type: functional
readout.kind: inhibition in vivo at 10 mg/kg (%)

[[record]]
molecule = "CC1(C)OC(/C=C/C=C/c2ccc(Cl)cc2)=CC1=O"
readout_kind = "inhibition in vivo at 10 mg/kg"
units_text = "%"
observed_value = 33

[[record]]
molecule = "CC1(C)OC(/C=C/c2cnccn2)=CC1=O"
readout_kind = "inhibition in vivo at 10 mg/kg"
units_text = "%"
observed_value = 56

[[record]]
molecule = "CC1(C)OC(/C=C/c2cc3ccccc3s2)=CC1=O"
readout_kind = "inhibition in vivo at 10 mg/kg"
units_text = "%"
observed_value = 17

[[record]]
molecule = "CC1(c2ccccc2)OC(/C=C/c2cccnc2)=CC1=O (configuration not stated)"
readout_kind = "inhibition in vivo at 10 mg/kg"
units_text = "%"
observed_value = 44

[[record]]
molecule = "C/C(=C\\c1ccccc1)C1=CC(=O)C(C)(C)O1"
readout_kind = "inhibition in vivo at 10 mg/kg"
units_text = "%"
observed_value = 0

[[record]]
molecule = "CC1(C)OC(/C=C/c2ccoc2)=CC1=O"
readout_kind = "inhibition in vivo at 10 mg/kg"
units_text = "%"
observed_value = 32

[[record]]
molecule = "CC1(c2ccc(F)cc2)OC(/C=C/c2ccc(C#N)cc2)=CC1=O (configuration not stated)"
readout_kind = "inhibition in vivo at 10 mg/kg"
units_text = "%"
observed_value = 1

[[record]]
molecule = "Cn1cccc1/C=C/C1=CC(=O)C(C)(C)O1"
readout_kind = "inhibition in vivo at 10 mg/kg"
units_text = "%"
observed_value = 32

[[record]]
molecule = "CC1(c2ccc(F)cc2)OC(/C=C/c2ccsc2)=CC1=O (configuration not stated)"
readout_kind = "inhibition in vivo at 10 mg/kg"
units_text = "%"
observed_value = 22

[[record]]
molecule = "CC1(c2ccccc2)OC(/C=C/c2ccc(C#N)cc2)=CC1=O (configuration not stated)"
readout_kind = "inhibition in vivo at 10 mg/kg"
units_text = "%"
observed_value = 4

[[record]]
molecule = "CC1(C)OC(/C=C/c2cccc(C#N)c2)=CC1=O"
readout_kind = "inhibition in vivo at 10 mg/kg"
units_text = "%"
observed_value = 68

[[record]]
molecule = "CC1(c2ccccc2)OC(/C=C/c2ccsc2)=CC1=O (configuration not stated)"
readout_kind = "inhibition in vivo at 10 mg/kg"
units_text = "%"
observed_value = 0

